TEST DETAILS: Oral bioavailability in Sprague-Dawley rat at 5 mg/kg
Format: ADME, organism-based
CONDITION SUMMARY: in vivo
PROPERTY: bioavailability (%)
Enter your answer as a number in %; do not include the unit.

INPUT: Item under review: COC(=O)N[C@H](C(=O)N1CCC[C@H]1c1ncc(-c2cc(F)c3c(c2)O[C@@H](c2ccccc2)n2c-3cc3cc(-c4cnc([C@@H]5CCCN5C(=O)[C@@H](NC(=O)OC)C(C)C)[nH]4)ccc32)[nH]1)C(C)C . Reported bioavailability?
OUTPUT: 33

====

TARGET: Nonstructural protein 5A (Hepatitis C virus) (UniProt Q5L478)
Sequence (whole entry): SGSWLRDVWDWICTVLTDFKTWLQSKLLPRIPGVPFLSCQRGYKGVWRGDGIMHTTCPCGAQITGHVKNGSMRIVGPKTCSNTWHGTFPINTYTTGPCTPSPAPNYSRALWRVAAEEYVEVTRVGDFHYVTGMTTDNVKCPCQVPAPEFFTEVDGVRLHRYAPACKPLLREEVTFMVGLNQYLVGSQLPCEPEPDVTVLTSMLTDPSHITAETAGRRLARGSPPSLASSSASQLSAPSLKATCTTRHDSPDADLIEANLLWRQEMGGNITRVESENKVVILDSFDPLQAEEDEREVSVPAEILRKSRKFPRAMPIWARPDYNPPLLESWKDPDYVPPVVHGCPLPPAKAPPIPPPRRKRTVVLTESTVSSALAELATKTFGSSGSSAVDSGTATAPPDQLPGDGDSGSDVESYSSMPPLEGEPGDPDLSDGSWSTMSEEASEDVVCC
TEST DETAILS: Inhibition of HCV GT3a NS5A assessed as suppression of replicon RNA level by real-time PCR analysis
CONDITION SUMMARY: Hepatitis C virus subtype 3a
// values below are reported EC90
# unit: nM | format: bare number

INPUT: Notebook entry, Nonstructural protein 5A (Hepatitis C virus) (UniProt Q5L478) assay: EC90 of COC(=O)N[C@H](C(=O)N1C[C@H](F)C[C@H]1c1ncc(-c2ccc3c(c2)OC(c2ccccc2)n2c-3cc3cc(-c4cnc([C@@H]5C[C@@H](F)CN5C(=O)[C@@H](NC(=O)OC)C(C)C)[nH]4)ccc32)[nH]1)C(C)C (mixture of isomers) = ?
OUTPUT: 2

INPUT: Lab request: please report EC90 under test system Nonstructural protein 5A (Hepatitis C virus) (UniProt Q5L478) for COC(=O)N[C@H](C(=O)N1C[C@H](F)C[C@H]1c1ncc(-c2cc(F)c3c(c2)OC(c2cccc(OC(C)C)c2)n2c-3cc3cc(-c4cnc([C@@H]5C[C@@H](F)CN5C(=O)[C@@H](NC(=O)OC)C(C)C)[nH]4)ccc32)[nH]1)C(C)C (some centres undefined)
OUTPUT: 1

INPUT: Find EC90 (Nonstructural protein 5A (Hepatitis C virus) (UniProt Q5L478)) for the entry CCOc1cccc(C2Oc3cc(-c4cnc([C@@H]5CCCN5C(=O)[C@@H](NC(=O)OC)C(C)C)[nH]4)cc(F)c3-c3cc4cc(-c5cnc([C@@H]6CCCN6C(=O)[C@@H](NC(=O)OC)C(C)C)[nH]5)ccc4n32)c1 (some centres undefined)
OUTPUT: 0.02

INPUT: Enter reported EC90 observed with Nonstructural protein 5A (Hepatitis C virus) (UniProt Q5L478) for COC(=O)N[C@H](C(=O)N1CCC[C@H]1c1ncc(-c2ccc3c(c2)OC(c2cc(OC)cc(OC)c2)n2c-3cc3cc(-c4cnc([C@@H]5CCCN5C(=O)[C@@H](NC(=O)OC)C(C)C)[nH]4)ccc32)[nH]1)C(C)C (some centres undefined)
OUTPUT: 0.08

All values here come from ChEMBL document CHEMBL4431385.
